Could you please report measured growth for the items listed next?
Test system: SR leukemia
Assay: NCI-60 one-dose screen, 48 h (100 = growth as untreated, 0 = no growth, -100 = all killed)
Conditions: 10 µM
This is part of a sample that, as a whole, favours compounds with a hit. Of some 83,000 tested, about 20% had one in any assay.
Give bare numbers, in %.

Recorded growth, per entry:
COMPOUND: COc1ccc(-c2cc(/C=C3\C(=O)Nc4cc(Cl)ccc43)[nH]n2)cc1OC
growth, %: 21.9
//
COMPOUND: Cc1cc(=O)oc2cc(OCc3cn(CC(O)CO)nn3)ccc12 (configuration not stated)
growth, %: 97.9
//
COMPOUND: CCOC(=O)c1ccc(N(C=O)CCC(=O)CCl)cc1
growth, %: 5.14

Could you report growth for every entry in the following list?
1. CC(C)/C=N/NC(N)=S
2. CC(CNC(Cc1ccccc1)c1ccccc1)NC(Cc1ccccc1)c1ccccc1 (configuration not stated)
3. Cc1ccc2nc(-c3ccc(OCC(=O)N=Nc4c(O)[nH]c5ccccc45)cc3)[nH]c2c1
4. CC(C)C[C@H](NC(=O)Cn1ccc(Nc2ccccc2)cc1=O)B(O)O

1. 51.9
2. -19.7
3. -17.5
4. 4.14

###

Record form. Attribute: growth. Fill in for each entry.
Test system: HT29 colon
Test: NCI-60 one-dose screen, 48 h (100 = growth as untreated, 0 = no growth, -100 = all killed)
Details: 10 µM
About 83,000 compounds went through this panel and 20% of them were active in at least one assay; those are over-represented in the sample as a whole.
One number for each entry, in %.

Please review the following examples before continuing.
MOLECULE: COc1cccc2c1O/C(=C\c1ncc([N+](=O)[O-])n1C)C2=O
growth, %: -20.7
//
MOLECULE: CCOC(=O)/C(C#N)=C(/C)C1CC1
growth, %: 112
//
MOLECULE: CCN(CC)CCOC(=O)c1ccc(NC(=O)Nc2cccc(Cl)c2)cc1
growth, %: 96.3
//
MOLECULE: CCCCC(=O)N(c1ccc(Nc2c3ccccc3nc3cc([N+](=O)[O-])ccc23)cc1)S(C)(=O)=O
growth, %: 79
//
MOLECULE: COc1ccc(-c2nc(-c3nc4ccc(OC)cc4[nH]3)c3ccccn23)cc1
growth, %: 58.6

Field: growth. Fill in for each record below.
1. COc1ccc(-c2nsc3c2NC(=O)CC3c2ccc(Cl)cc2)cc1 (stereo not given)
2. CCOc1nc(-c2ccccc2)cc2c(O)c(C(=O)N/N=C/c3ccc(OC)cc3)[nH]c(=O)c12
3. COc1ccc(-c2cc(=O)n(-c3nc4ccccc4[nH]3)[nH]2)cc1OC
4. N/C(=N\O)c1cn(C2OC(CO)C(O)C2O)c2ncnc(N)c12 (stereo not given)
5. Nc1c(CNCc2nnn(Cc3ccccc3)c2N)nnn1Cc1ccccc1

1: 89.8; 2: 108; 3: 109; 4: 7.04; 5: 105

###

System: SNB-75 CNS
Assay: NCI-60 one-dose screen, 48 h (100 = growth as untreated, 0 = no growth, -100 = all killed)
Conditions: 10 µM
This is part of a sample that, as a whole, favours compounds with a hit. Of some 83,000 tested, about 20% had one in any assay.
For each entry below, report its growth value.
Give bare numbers, in %.

MOLECULE: COc1cc(OC)cc(-c2n/c(=C\c3c(O)[nH]c4ccc(OC)cc34)cc3c2=Nc2ccccc2-3)c1
SUBJECT_OF_TEST: SNB-75 CNS
UNIT_OF_MEASURE: %
ENDPOINT_RESULT: 103

MOLECULE: CCN(CC)CCOC(=O)c1ccc(N=Nc2ccc(O)c(OC)c2)cc1
SUBJECT_OF_TEST: SNB-75 CNS
UNIT_OF_MEASURE: %
ENDPOINT_RESULT: 89.3

MOLECULE: CN(C)CCCN1c2ccccc2Sc2ccc(C(F)(F)F)cc21
SUBJECT_OF_TEST: SNB-75 CNS
UNIT_OF_MEASURE: %
ENDPOINT_RESULT: -2.79

Could you report growth for every entry in the following list?
1. COc1cc(C(=O)n2nc(N)c3c(C)cc(C)nc32)cc(OC)c1OC
2. CN(C)c1ccc2c(c1)OC(N)=C(C#N)C2c1ccc2c(c1)CCCN2C (stereo not drawn)
3. CCNC(=S)NN
4. CCN(CC)CCn1c(=N)n(CC(O)c2ccc(Cl)c(Cl)c2)c2ccccc21 (stereo not drawn)
5. Oc1cc(O)c(Br)cc1Br
6. O=C(O)c1ccccc1C(=O)c1cccc2c(F)cccc12

[57.9, 42.7, 77, 71.8, 95.7, 86.2]

Parameters: items (list). Returns: growth for each item.
1. CN(C)c1ccc2cc(-c3cc4c(oc3=O)-c3ccccc3OC4O)c(=O)oc2c1 (stereo not drawn)
2. CCc1nn2c(-c3ccccc3)c(-c3cc(OC)c(OC)c(OC)c3)nc2s1

1. 24
2. 45.9

The following molecules each have a reported value; give each one's growth.
1. CCOC(=O)c1c(O)c2cc(-c3ccccc3)nc(OCC)c2c(=O)n1C
2. Nc1c(C(=O)Nc2ccccc2F)sc2nc3c(cc12)C(=O)CCC3
3. COc1cc(CSc2nc3ccc(C)cc3c(=O)n2-c2ccccc2)cc(OC)c1OC
4. Cc1cc(OI)c(C(C)C)cc1-c1cc(C(C)C)c(OI)cc1C
5. CCOC(=O)C(=O)Cc1cccnn1

[95.6, 13.7, -7.55, 107, 78]

# batch: return growth for each of the 2 molecules below
1. CN(C)CCCN(Cc1ccccc1O)C(=S)Nc1ccc(Cl)cc1
2. O=S(=O)(NCl)c1ccccc1

1: 79.5; 2: 84.3

###

For each of the compounds below, state its growth.
System: KM12 colon
Assay: NCI-60 one-dose screen, 48 h (100 = growth as untreated, 0 = no growth, -100 = all killed)
Conditions: 10 µM
The panel holds about 83,000 compounds, 20% with a hit somewhere; the sample as a whole holds those more often.
One number for each entry, in %.

Example results:
COMPOUND: COc1cccc2c1C(=O)c1c(O)c3c(c(O)c1C2=O)C[C@@](O)(C(=O)COC(=O)c1ccccc1)C[C@@H]3OC1CC(N)C(O)C(C)O1 (stereo not given in full)
growth, %: -95.6

COMPOUND: COCCNCC(O)Cn1c2ccc(Cl)cc2c2cc(Cl)ccc21 (stereo not given)
growth, %: 10.9

COMPOUND: COc1cc(C2c3cc4c(cc3C(O)C(CO)C2CO)OCO4)cc(OC)c1OC (stereo not given)
growth, %: 16.1

COMPOUND: O=S(=O)(NCCO)c1ccc(OCCOc2ccc(S(=O)(=O)NCCO)cc2)cc1
growth, %: 104

Now turn to the next compound.
Can you share its growth? I mean this compound: C=CCc1cc(Nc2c3ccc(Cl)cc3nc3ccc(OC)cc23)cc(CN(CC)CC)c1O 11.7

###

Tested on: IGROV1 ovarian
Assay: NCI-60 one-dose screen, 48 h (100 = growth as untreated, 0 = no growth, -100 = all killed)
Conditions: 10 µM
This is part of a sample that, as a whole, favours compounds with a hit. Of some 83,000 tested, about 20% had one in any assay.
QUANTITY_MEASURED: growth (%)
One number for each entry, in %.

Observe how each entry below is paired with its result.
MOLECULE: CCOC(=O)CSC(=S)SCC(=O)OCC
UNIT_OF_MEASURE: %
ENDPOINT_RESULT: 117

MOLECULE: Cc1cnc(C=O)c2cccc([N+](=O)[O-])c12
UNIT_OF_MEASURE: %
ENDPOINT_RESULT: 95.9

MOLECULE: N=C(N)c1ccc(-c2ccc(-c3ccccc3)s2)s1
UNIT_OF_MEASURE: %
ENDPOINT_RESULT: -31.1

MOLECULE: COc1ccc(/C=C2\CCC3C(CCCC34OCCO4)C2=O)cc1 (stereo unspecified)
UNIT_OF_MEASURE: %
ENDPOINT_RESULT: 83

MOLECULE: Cc1nc(Nc2nc3ccccc3o2)nc(-c2cccc([N+](=O)[O-])c2)c1C(=O)Nc1ccc(F)c(Cl)c1
UNIT_OF_MEASURE: %
ENDPOINT_RESULT: 40.3

Hi there! I need growth for each item below, if you can.
1. CC(C)C(C)C(N)C(=O)O (stereo unspecified)
2. CCCc1ccnc(NS(=O)(=O)c2ccc(N)cc2)n1
3. C[C@]12CC[C@H]3[C@@H](CCC4=CC(=O)CC[C@@]43C)[C@@H]1CC[C@@H]2c1csc(N)n1
4. Cn1c([N+](=O)[O-])cnc1/C=C1\Oc2ccc(Br)cc2C1=O
5. CCCn1c(=O)c2c(nc(-c3cccc(OCCCCl)c3)n2C)n(CCC)c1=O
6. COc1cc2nc(Sc3sc(N)nc3C)n(-c3ccc(Oc4ccccc4)cc3)c(=O)c2cc1OC

101
96.4
87.3
-21.6
30.2
107
